// provenance: patent US20170369444A1

PHF8 (KDM7) (Homo sapiens) measurements of IC50, listed per entry.
Sequence (Q9UPP1 whole entry): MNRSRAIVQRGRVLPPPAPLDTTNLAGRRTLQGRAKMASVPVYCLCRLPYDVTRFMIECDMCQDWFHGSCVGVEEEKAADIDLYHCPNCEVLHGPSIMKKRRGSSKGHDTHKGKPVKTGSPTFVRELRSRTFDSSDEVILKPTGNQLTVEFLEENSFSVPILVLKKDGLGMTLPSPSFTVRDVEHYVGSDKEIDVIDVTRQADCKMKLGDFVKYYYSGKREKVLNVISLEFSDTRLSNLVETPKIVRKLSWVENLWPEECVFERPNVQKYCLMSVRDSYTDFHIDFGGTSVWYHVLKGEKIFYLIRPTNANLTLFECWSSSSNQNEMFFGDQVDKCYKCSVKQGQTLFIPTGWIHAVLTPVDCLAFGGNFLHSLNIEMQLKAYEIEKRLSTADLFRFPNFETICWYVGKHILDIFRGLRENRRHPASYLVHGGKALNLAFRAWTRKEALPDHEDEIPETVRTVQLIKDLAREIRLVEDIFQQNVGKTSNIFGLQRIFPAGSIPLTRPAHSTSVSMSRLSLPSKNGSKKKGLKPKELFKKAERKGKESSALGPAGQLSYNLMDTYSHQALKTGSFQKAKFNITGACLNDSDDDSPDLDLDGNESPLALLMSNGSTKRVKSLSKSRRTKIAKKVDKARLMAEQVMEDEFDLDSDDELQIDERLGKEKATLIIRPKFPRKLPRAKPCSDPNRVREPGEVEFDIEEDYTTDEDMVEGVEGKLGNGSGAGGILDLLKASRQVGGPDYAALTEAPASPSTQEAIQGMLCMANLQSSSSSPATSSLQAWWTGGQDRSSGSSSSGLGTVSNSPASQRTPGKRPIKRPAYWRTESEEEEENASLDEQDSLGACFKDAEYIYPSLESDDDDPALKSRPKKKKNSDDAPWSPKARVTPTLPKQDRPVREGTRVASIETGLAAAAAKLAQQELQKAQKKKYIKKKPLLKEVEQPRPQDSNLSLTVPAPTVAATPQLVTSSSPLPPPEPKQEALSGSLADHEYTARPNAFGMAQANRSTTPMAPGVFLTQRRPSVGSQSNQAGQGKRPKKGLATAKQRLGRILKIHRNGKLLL

Record excerpt, results attached:
# molecule, testTarget, IC50
measured = [
    ("CSCC[C@H](NCc1cc(C(=O)O)ccn1)C(=O)OC(C)(C)C", "PHF8 (KDM7) (Homo sapiens)", "0.25 to 2.5 µM"),
    ("CCCC(NCC(=O)N1CCCCC1)c1cc(C(=O)O)ccn1 (stereo not drawn)", "PHF8 (KDM7) (Homo sapiens)", "0.25 to 2.5 µM"),
]

Kindly consider the entry below.
Request: # returns recorded IC50 (system: PHF8 (KDM7) (Homo sapiens)) for O=C(O)c1ccnc(CNCc2cn(Cc3ccc(F)cc3)c3ncccc23)c1
Response: < 0.25 µM
